Assay: CEETOX_H295R_OHPROG: CeeTox H295R High-throughput Steroidogenesis Assay for OH-Progesterone (OHPROG) (AID 2283435)
Details: actives raise or lower the signal
Method: CEETOX_H295R is a cell-based, multiplexed-readout assay that uses H295R, a human adrenal gland cell line, with measurements taken at 48 hours after chemical dosing in a 96-well plate.CEETOX_H295R_OHPROG is one of 23 assay component(s) measured or calculated from the CEETOX_H295R assay. […] This assay endpoint, CEETOX_H295R_OHPROG, was analyzed with bidirectional fitting relative to DMSO as the negative control and baseline of activity. […]
Activity calls are given as the source filed them. Rule for the calls: active = hit-call score of the fitted dose curve at least 0.9, where 1 is the maximum; inactive = score below 0.9.
Answer with one of the outcomes given here: active, inactive

Data request: What did this assay record as the result for CCCCC(C#N)(Cn1cncn1)c1ccc(Cl)cc1 (centres undefined) ?
Data returned: active

Data request: What did this assay record as the result for `COC(=O)NC(=S)Nc1ccccc1NC(=S)NC(=O)OC` ?
Data returned: inactive

Data request: What did this assay record as the result for COCc1cnc(C2=NC(C)(C(C)C)C(=O)N2)c(C(=O)O)c1 (centres undefined) ?
Data returned: inactive

Data request: What did this assay record as the result for `Nc1cnn(-c2ccccc2)c(=O)c1Cl` ?
Data returned: inactive
